Ref: patent US9482923B2

Below, each of the compounds is paired with its reported Viscosity (5%) value.
- TEST_DETAILS: Measurement of viscosity of dye solutions in n-hexane (R-type viscometer)
- Assay type: physicochemical
- PROTOCOL_CONDITIONS: 5% by mass solution in n-hexane, 20° C.
Quick note: give the figure in mPa · S, leave out the unit.

>>> recorded_measurement("CCCCOC(=O)CN(CC(=O)OCCCC)c1ccc(C=C2C(=O)ON=C2C(C)(C)C)cc1")
2.1
>>> recorded_measurement("CCCCCCCCN(CCCCCCCC)c1ccc(C=CC=C2C(=O)ON=C2C(C)(C)C)c(OC)c1")
2.1
>>> recorded_measurement("CCCCCCCCCCCCN(CCCCCCCCCCCC)c1ccc(C=C2C(=O)ON=C2c2ccccc2)cc1")
2.1
>>> recorded_measurement("CCCCCCCCCCCCn1cc(C=C2C(=O)ON=C2c2ccccc2)c2ccccc21")
2.1
>>> recorded_measurement("CCCCCCCCCCCCN(CCCCCCCCCCCC)c1ccc(C=CC=CC=C2C(=O)ON=C2C)c(C)c1")
2.3

Continue with the compound presented below.
Data request: Record request: Viscosity (5%) value, item CCCCCCCCCCCCN(CCCCCCCCCCCC)c1ccc(C=CC=C2C(=O)ON=C2C(C)(C)C)c(C)c1
Data returned: 2.1

###

- TEST_DETAILS: Absorption maximum wavelength and absorption coefficient of colored composition (visible-light spectrophotometer)
- Assay type: physicochemical
- PROTOCOL_CONDITIONS: n-hexane solution
EXPERIMENTAL_READOUT: Absorption Maximum Wavelength λmax (nm)
Write the answer as a number in nm, unit excluded.

A selection of reference data follows.
>>> recorded_measurement("CCCCCCCCCCCCN(CCCCCCCCCCCC)c1ccc(C=CC=CC=C2C(=O)ON=C2C)c(C)c1 [E-7]")
556
>>> recorded_measurement("CCCCCCCCCCCCn1cc(C=C2C(=O)ON=C2c2ccccc2)c2ccccc21 [D-25]")
426

From here, focus on the item given below.
Data request: Query (compound): CCCCCCCCN(CCCCCCCC)c1ccc(C=CC=C2C(=O)ON=C2C(C)(C)C)c(OC)c1 [E-3] ; field requested: Absorption Maximum Wavelength λmax
Data returned: 530

###

Measured Solubility (% by mass), listed per entry for reference.
- TEST_DETAILS: Solubility of the dye in n-hexane
- Assay type: physicochemical
- PROTOCOL_CONDITIONS: in n-hexane at 25° C. and 0.1 MPa
Please don't drop the unit; write it after the number.

>>> recorded_measurement("CCCCCCCCCCCCN(CCCCCCCCCCCC)c1ccc(C=C2C(=O)ON=C2c2ccccc2)cc1")
"10.5 % by mass"
>>> recorded_measurement("CCCCOC(=O)CN(CC(=O)OCCCC)c1ccc(C=C2C(=O)ON=C2C(C)(C)C)cc1")
"5.0 % by mass"
>>> recorded_measurement("CCCCCCCCN(CCCCCCCC)c1ccc(C=CC=C2C(=O)ON=C2C(C)(C)C)c(OC)c1")
"7.2 % by mass"
>>> recorded_measurement("CCCCCCCCCCCCN(CCCCCCCCCCCC)c1ccc(C=CC=C2C(=O)ON=C2C(C)(C)C)c(C)c1")
"6.5 % by mass"
>>> recorded_measurement("Cc1cc(C=C2C(=O)ON=C2C(C)(C)C)c(C)n1-c1ccc(C(=O)O)cc1 [D-101, reference compound]")
"0.015 % by mass"
>>> recorded_measurement("CCCCCCN(CCCCCC)c1ccc(C=C2C(=O)ON=C2C(C)(C)C)c(C)c1")
"1.2 % by mass"
>>> recorded_measurement("CCCCCCCCCCCCN(CCCCCCCCCCCC)c1ccc(C=CC=CC=C2C(=O)ON=C2C)c(C)c1")
"5.0 % by mass"
>>> recorded_measurement("COc1ccc(C2=NOC(=O)C2=Cc2ccc(N(CC(=O)O)CC(=O)O)cc2)cc1 [D-102, reference compound]")
"0.008 % by mass"

// next item, Solubility (% by mass) requested
Data request: Solubility (% by mass) lookup needed for CCCCCCCCCCCCn1cc(C=C2C(=O)ON=C2c2ccccc2)c2ccccc21 , thanks.
Data returned: 8.0 % by mass

###

The entries below come with measured Absorption Coefficient (ε) values attached.
- TEST_DETAILS: Absorption maximum wavelength and absorption coefficient of colored composition (visible-light spectrophotometer)
- Assay type: physicochemical
- Set-up: unit not given here
- PROTOCOL_CONDITIONS: n-hexane solution; calculated by Lambert-Beer law

Example results:
>>> recorded_measurement("CCCCCCCCCCCCN(CCCCCCCCCCCC)c1ccc(C=C2C(=O)ON=C2c2ccccc2)cc1")
"4.50 × 10^4"
>>> recorded_measurement("CCCCCCCCN(CCCCCCCC)c1ccc(C=CC=C2C(=O)ON=C2C(C)(C)C)c(OC)c1")
"5.20 × 10^4"
>>> recorded_measurement("CCCCCCCCCCCCN(CCCCCCCCCCCC)c1ccc(C=CC=CC=C2C(=O)ON=C2C)c(C)c1")
"5.20 × 10^4"

Now for the compound whose Absorption Coefficient (ε) we want.
Data request: // returns reported Absorption Coefficient (ε) for input CCCCCCCCCCCCn1cc(C=C2C(=O)ON=C2c2ccccc2)c2ccccc21
Data returned: 3.66 × 10^4

###

- TEST_DETAILS: Absorption maximum wavelength and absorption coefficient of colored composition (visible-light spectrophotometer)
- Format: physicochemical
- PROTOCOL_CONDITIONS: n-hexane solution
- Description: Each of the dyes shown above as Exemplary Compounds D-2, D-11, D-13, D-14, D-25, D-37, E-2, E-3, and E-7 was dissolved in a solvent (n-hexane) to make a 3% by mass solution, thereby preparing a colored composition (ink). Each of the colored compositions (inks) obtained was evaluated with respect to its color, absorption maximum wavelength (λmax), absorbance (abs), absorption coefficient (∈), viscosity, and relative dielectric constant, and solubility (% by mass) of each of the dyes in a solvent. […]
EXPERIMENTAL_READOUT: Absorption Maximum Wavelength λmax (nm)
Respond with the bare value in nm.

The examples below pair each entry with its known result.
>>> recorded_measurement("CCCCCCCCCCCCN(CCCCCCCCCCCC)c1ccc(C=CC=C2C(=O)ON=C2C(C)(C)C)c(C)c1 [E-2]")
515
>>> recorded_measurement("CCCCOC(=O)CN(CC(=O)OCCCC)c1ccc(C=C2C(=O)ON=C2C(C)(C)C)cc1 [D-11]")
459
>>> recorded_measurement("CCCCCCN(CCCCCC)c1ccc(C=C2C(=O)ON=C2C(C)(C)C)c(C)c1 [D-37]")
465

Then this molecule:
Data request: Fill in: Absorption Maximum Wavelength λmax of CCCCCCCCCCCCN(CCCCCCCCCCCC)c1ccc(C=C2C(=O)ON=C2c2ccccc2)cc1 [D-2] is ___
Data returned: 468
